measured on: T1, Peptide 8: Biotin-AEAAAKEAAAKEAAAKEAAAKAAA-Tyr-acid (N-terminal biotin; C-terminal acid)
T1 construct: Control peptide without PC
T1 peptide: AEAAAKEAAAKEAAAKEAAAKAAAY
assay notes: scFv ELISA
Listed binders paired with reported OD450

| binder | result units | OD450 |
| --- | --- | --- |
| PcOxP_DB04_D05 (scFv, V domains shown, scFv in periplasmic extract) VH: EVQLLESGGGLVQPGGSLRLSCAASGFTFSDYYMEWVRQAPGKGLEWVAASRNVANDYTTEYADSVKGRFTISRDNSKNTLYLQMNSLRAEDTAVYYCARDYYGSSYWYFDVWGQGTLVTVSS VL: DIVMTQSPDSLAVSLGERATINCTASTSLYSSKHKVHYLAWYQQKPGQPPKLLIYGASNRYIGVPDRFSGSGSGTDFTLTISSLQAEDVAVYYCAQFYSYPLTFGGGTKVEIK | OD450 | 0.06 |
| PcOxP_DB04_B11 (scFv, V domains shown, scFv in periplasmic extract) VH: EVQLLESGGGLVQPGGSLRLSCAASGDTFSDFYMEWVRQAPGKGLEWVAASRWKANDYTTEYADSVKGRFTISRDNSKNTLYLQMNSLRAEDTAVYYCARDYYGSSYWYFDVWGQGTLVTVSS VL: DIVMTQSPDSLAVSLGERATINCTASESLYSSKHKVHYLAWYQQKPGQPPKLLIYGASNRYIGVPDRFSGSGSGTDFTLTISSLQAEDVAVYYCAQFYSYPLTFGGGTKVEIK | OD450 | 0.05 |
| PcOxP_DB03_G09 (scFv, V domains shown, scFv in periplasmic extract) VH: EVQLLESGGGLVQPGGSLRLSCAASGFSFSDFYMEWVRQAPGKGLEWVAASRNKWNDYTTEYADSVKGRFTISRDNSKNTLYLQMNSLRAEDTAVYYCARDYYGSSYWYFDVWGQGTLVTVSS VL: DIVMTQSPDSLAVSLGERATINCTASESLYSSKHKVHYLAWYQQKPGQPPKLLIYGASNRYIGVPDRFSGSGSGTDFTLTISSLQAEDVAVYYCASFYSYPLTFGGGTKVEIK | OD450 | 0.05 |

// provenance: patent US20250320312A1
